Below: a set of entries, each annotated with reported abundance fitness.
B1: Gamma-crystallin C, residues 4 to 79; numbered along this chain, P07315 (parent)
chain: ITFYEDRAFQGRSYETTTDCPNLQPYFSRCNSIRVESGCWMLYERPNYQGQQYLLRRGEYPDYQQWMGLSDSIRSC

Variants of: B1
Assay: abundance fitness (aPCA) (normalised: wild type 0, dead -1); higher = more abundant; growth selection in yeast, the domain comes from the species named
Conditions: Homo sapiens
Please respond with just the number, no unit label.

| Sequence Variant | abundance fitness |
| --- | --- |
| T18C | -0.165 |

Q. Which abundance fitness reading was recorded for the variant `Q24C` ?
A. -0.131

Q. Which abundance fitness reading was recorded for the variant `R34G` ?
A. -0.593

// provenance: the Human Domainome abundance scans (Beltran et al. 2025)
